Form field: binding signal (one value per entry).
- Assay System: T1, UNK ZnF1-6 (called full-length) (human, UniProt Q9C0B0 30-357)
- T1 sequence: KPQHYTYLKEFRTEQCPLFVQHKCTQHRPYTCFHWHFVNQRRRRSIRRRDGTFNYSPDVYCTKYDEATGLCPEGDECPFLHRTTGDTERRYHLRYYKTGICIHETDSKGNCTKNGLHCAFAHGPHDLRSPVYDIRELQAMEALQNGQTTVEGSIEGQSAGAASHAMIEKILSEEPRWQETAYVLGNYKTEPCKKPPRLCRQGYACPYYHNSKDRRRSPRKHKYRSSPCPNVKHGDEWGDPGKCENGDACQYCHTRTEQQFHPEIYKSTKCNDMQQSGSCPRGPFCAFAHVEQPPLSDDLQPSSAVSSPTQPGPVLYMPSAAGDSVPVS
- Test Details: nsRBNS (natural sequence RNA bind-n-seq); RBNS binding buffer (assumed for nsRBNS): 25 mM Tris pH 7.5, 150 mM KCl, 3 mM MgCl2, 0.01% Triton X-100, 500 ug/ml BSA, 20 U/ml SUPERase-In, 4 C; UNK is unkempt and MSI1 is Musashi-1; names of the RNAs are library labels; protein concentration not given here; high values mean tight binding
In all, about 5,800 sequences were measured (“enrichment r”: median about 0.68, highest 2% from about 11 on). Only a selection was taken, and the highest values are over-represented in it overall.
Number first, unit second: that is the form wanted.

Guide cases for binding signal, answers given:
chr11:119024350:119024909:-|three_prime_utr|ENSG00000137700|control|control|control (ssRNA) RNA: GGGAGUUCUACAGUCCGACGAUCUCCCACGGUGGCCUUCCCCCUGCACGCUCUGCGGGGAGAAAAGGAGGGGCCUGCCUGGCUAGCCCUGAACCUUUCACUUUCCAUUUCUGCGCCUUUUCUGUCACCCGGGUGGCGCUGGAACAACAGAGGAUUGAGCAUCA = 0.719 enrichment R
ENSG00000070961:be:win_6101|3pUTR|ENSG00000070961|bound_else_gene|NA|bound_elsewhere_windowed (ssRNA) RNA: GGGAGUUCUACAGUCCGACGAUCUAAAGAUCUUGGAUCCCAUUAUAUAGUAUGUAUAGCUGAAAUCUGUAAUUCAAUCACUUUUUCUCUUUUAUCCUCUAACCAAAAAAUUGUUUAAUUUUGCAUCCCAAAUGUUUUUAAUCUCAACAGAGGAUUGAGCAUCA = 39 enrichment R
chr8:23842440:23842541:-|3pUTR|ENSG00000159167|msi1|total|mutant (ssRNA) RNA: GGGAGUUCUACAGUCCGACGAUCCCAAUGCGACAAGCCGUUCAUGAGUAUUCCCCGCAAAUUUCUCUCUUUCUUCAGUUCAGCCGAUUUCCUUUUUUCUUUUCUUUUUUUUUUUUUUUUUUUUUGGCUGUGACCUCUUCAAACCAACAGAGGAUUGAGCAUCA = 3.66 enrichment R
chr5:154817497:154817598:+|3pUTR|ENSG00000155506|msi1_unk|FALSE|overlapping (ssRNA) RNA: GGGAGUUCUACAGUCCGACGAUCUUAUUGAGAGUAUCUGCUUUCCAGGCUGAAGUGAUUCAUUCAUUAUUCUAGUCCUGCUUUAGUCCUUUGUAAUUUGUGGUAAUUAUGCUUUUCUUUUUAAUACAAAAAAAUGUAUAAAAACAACAGAGGAUUGAGCAUCA = 1.93 enrichment R
chr8:23842440:23842541:-|3pUTR|ENSG00000159167|msi1|FALSE|unique (ssRNA) RNA: GGGAGUUCUACAGUCCGACGAUCCCAAUGCGACAAGUAGUUCAUGAGUAUUCCUAGCAAAUUUCUCUCUUUCUUCAGUUCAGUAGAUUUCCUUUUUUCUUUUCUUUUUUUUUUUUUUUUUUUUUGGCUGUGACCUCUUCAAACCAACAGAGGAUUGAGCAUCA = 28.9 enrichment R

binding signal for ENSG00000103657:stop:overlap|stop_codon|ENSG00000103657|stop_codon|NA|stop_codon (ssRNA) RNA: GGGAGUUCUACAGUCCGACGAUCAGUUUUCUGUUGCUUUGACCAAAGAUGGUCAUGUGUAUACCUUUGGUCAAGGUGGUGAGUAGUCACUAUGACCUCCUUUCAGUAUAGAUAAUUUUCCACUUCUCUUUCAUGUGCUUUAUUCAACAGAGGAUUGAGCAUCA is 0.846 enrichment R

Note to self: binding signal recorded for chr2:224001733:224001845:-|CDS|ENSG00000135919|unk|total|mutant (ssRNA) RNA: GGGAGUUCUACAGUCCGACGAUCGGCCUCUGUGACGCUGCCUUCCAUCUGCUCCCACUUCAAUCCUCUGUCUCUCGAGGAACCCGGCUCCAACACGGGGAUCCAGGUUUUCAAUCAGAUUGUGAAGUCGAGGCCUCAUGACAACAACAGAGGAUUGAGCAUCA was 0.666 enrichment R
